Source of measurements: ChEMBL document CHEMBL4033707

Experiment: Octanol-buffer partition coefficient, log D of the compound at pH 7.4 by shake-flask method
Format: physicochemical
quantity: logD

# smiles data, logD
data = [
    ("CNC(=O)c1nc(-c2nc(-c3cnc4ccccn34)c(C)nc2N)n(C)n1", 1.8),
    ("CNC(=O)c1nc(-c2nc(-c3cnn4ccccc34)c(C)nc2N)n(C)n1", 2.3),
]

----------
Experiment: Volume of distribution in Han Wistar rat at 4 umol/kg, iv or 10 umol/kg, po
Format: ADME, organism-based
Conditions: in vivo
quantity: Vd (L/kg)

# smiles data, quantity, test result
records = [
    ("CNC(=O)c1nc(-c2nc(-c3cnc4ccccn34)c(C)nc2N)n(C)n1", "Vd", 0.9),
    ("CNC(=O)c1nc(-c2nc(-c3cnn4ccccc34)c(C)nc2N)n(C)n1", "Vd", 0.8),
]

----------
Assay: Oral bioavailability in Han Wistar rat at 10 umol/kg
Type: ADME, organism-based
Details: in vivo
quantity: bioavailability (%)

a: CNC(=O)c1nc(-c2nc(-c3cnn4ccccc34)c(C)nc2N)n(C)n1
b: CNC(=O)c1nc(-c2nc(-c3cnc4ccccn34)c(C)nc2N)n(C)n1
Q) Pick one, a or b : lowest reported bioavailability. Please identify the chosen entry by its label.
A) a
(a: 9%, b: 46%)

----------
Experiment: Inhibition of PI3Kalpha mutant in human BT474 cells assessed as reduction in AKT phosphorylation at Thr308
Format: cell-based
Settings: BT-474
pIC50: −log10 of the molar value.
quantity: pIC50

1: CN(C)CC(=O)N1CCC(n2cc(-c3cnc(N)c(-n4nnc5ccccc54)n3)cn2)CC1
2: Cc1nc(N)c(-c2cnn(C3CCN(C)CC3)n2)nc1-c1cnc2ccccn12
Q) Pick one, 1 or 2 : lowest reported pIC50. Please identify the chosen entry by its label.
A) 2
(2: 7.00, 1: 7.24)

A: CO[C@H]1CC[C@H](NC(=O)c2nc(-c3nc(-c4cnc5ccccn45)c(C)nc3N)n(C)n2)CC1
B: Cc1nc(N)c(-c2nc(C(=O)NCCN(C)C)nn2C)nc1-c1cnn2ccccc12
Q) Which one would you say has the larger pIC50 value: A , or B ? Please identify the chosen entry by its label.
A) B

a: Cc1nc(N)c(-c2nc(C3CCN(C)CC3)nn2C)nc1-c1cnc2ccccn12
b: CNC(=O)c1nc(-c2nc(-c3cnc4ccccn34)cnc2N)n(C)n1
Q) Pick one, a or b : lowest reported pIC50. Please identify the chosen entry by its label.
A) b

P: CNC(=O)c1nc(-c2nc(-c3cnn4ccccc34)c(C)nc2N)n(C)n1
Q: CNC(=O)c1nc(-c2nc(-c3cnc4ccccn34)c(C)nc2N)n(C)n1
Q) Pick one, P or Q : lowest reported pIC50. Please identify the chosen entry by its label.
A) Q

----------
Molecular target: Phosphatidylinositol 4,5-bisphosphate 3-kinase catalytic subunit gamma isoform (Homo sapiens, UniProt P48736)
Sequence (P48736 whole entry, canonical isoform): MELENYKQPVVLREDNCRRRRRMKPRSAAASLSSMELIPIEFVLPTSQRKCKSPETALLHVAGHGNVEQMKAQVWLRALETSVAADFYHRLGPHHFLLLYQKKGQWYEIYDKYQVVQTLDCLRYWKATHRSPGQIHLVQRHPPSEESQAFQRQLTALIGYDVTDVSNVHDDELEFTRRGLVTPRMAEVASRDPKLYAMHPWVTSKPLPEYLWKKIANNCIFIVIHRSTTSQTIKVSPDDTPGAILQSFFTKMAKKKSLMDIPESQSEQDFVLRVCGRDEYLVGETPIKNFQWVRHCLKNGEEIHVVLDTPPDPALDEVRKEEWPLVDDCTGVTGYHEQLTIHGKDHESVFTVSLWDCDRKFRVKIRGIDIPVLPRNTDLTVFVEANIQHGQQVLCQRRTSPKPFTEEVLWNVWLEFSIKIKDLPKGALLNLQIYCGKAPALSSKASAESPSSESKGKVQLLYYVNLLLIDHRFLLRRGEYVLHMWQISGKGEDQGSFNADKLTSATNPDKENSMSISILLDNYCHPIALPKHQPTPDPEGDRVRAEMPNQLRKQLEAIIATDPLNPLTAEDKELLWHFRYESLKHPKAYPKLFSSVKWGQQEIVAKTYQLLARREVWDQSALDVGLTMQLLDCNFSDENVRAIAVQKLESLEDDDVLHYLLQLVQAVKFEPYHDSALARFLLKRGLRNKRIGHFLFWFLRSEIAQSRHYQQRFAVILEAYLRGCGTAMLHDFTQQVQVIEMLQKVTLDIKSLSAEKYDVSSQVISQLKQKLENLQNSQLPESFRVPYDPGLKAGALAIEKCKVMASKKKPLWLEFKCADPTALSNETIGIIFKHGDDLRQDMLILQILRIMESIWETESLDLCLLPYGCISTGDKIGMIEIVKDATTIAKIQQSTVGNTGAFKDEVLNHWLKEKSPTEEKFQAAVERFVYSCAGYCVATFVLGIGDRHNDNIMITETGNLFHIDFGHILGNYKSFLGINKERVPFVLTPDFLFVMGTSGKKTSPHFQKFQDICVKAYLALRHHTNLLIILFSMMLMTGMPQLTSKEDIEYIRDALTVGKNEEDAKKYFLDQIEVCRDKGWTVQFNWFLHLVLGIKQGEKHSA
Test: Inhibition of PI3Kgamma (unknown origin)
quantity: pIC50
Scale for pIC50: -log10 of concentration given in mol/L; no unit attached.

Q) Data request, read-out pIC50, for CNC(=O)c1nc(-c2nc(-c3cnc4ccccn34)c(C)nc2N)n(C)n1
A) 7.37

----------
Test: Dissociation constant, pKa of the compound
Assay type: physicochemical
quantity: pKa

1: CNC(=O)c1nc(-c2nc(-c3cnc4ccccn34)c(C)nc2N)n(C)n1
2: CNC(=O)c1nc(-c2nc(-c3cnn4ccccc34)c(C)nc2N)n(C)n1
Q) Which one would you say has the larger pKa value: 1 , or 2 ? Please identify the chosen entry by its label.
A) 1
